Tested on: WSU-DLCL2
Assay: Cell viability (Promega CellTiter-Glo), inhibitory effect on tumor cell line
Assay type: cell-based
Conditions: WSUDLCL2; WSU-DLCL2, human diffuse large B-cell lymphoma; sensitive group; 3-4 days of culture; n=3
test_readout: IC50 (µM)
Report as a plain number; the unit µM is understood.

Measured IC50, `O=C1OCCN1/N=C/c1ccc([N+](=O)[O-])o1` : 9.04

Measured IC50, O=C(N/N=C/c1ccc([N+](=O)[O-])o1)c1ccc(O)cc1 [Nifuroxazide, nifuroxazide] : 4.22
